assay method text: yeast display, Sf9 membrane polyspecificity reagent, FACS + sequencing; frameworks hold sequencing errors

- sequence code: "QVQLVESGGALVQAGGSLRLSCAPSGLTFSDYAMGWYRQAPGKEREFVAGISSGGSTYYADSVKGRFTISRDNAKNTVYFQMKSLKPEDTAVYFCAGTRYNSWPIKFDYWGQGTQVTVSS"
  polyreactivity (PSR sort gate): "high polyreactivity"
- sequence code: "QVQLVESGGALLQAGGSLRLSCSASGRIFSANAMGWYRPAPGKERELVAAITYSGATTYYADSVKGRFTISRDNAKNTVYLQMTSLKPEDTAVYDCAADAGYTHYTAEEEYWGQGTQVTVSS"
  polyreactivity (PSR sort gate): "low polyreactivity"
- sequence code: "QVQLVESGGGLVQAGGSHRLSCAASGSILSYYAMGWYRQAPGQEREFVAAIRTRGGSTYYADSVKGRFTISRDNAKNTVYLQMYSLKPEDTAVYYFAARTRPDRVRQGRYYYWGQGTQVTVSS"
  polyreactivity (PSR sort gate): "high polyreactivity"
- sequence code: "QVQLVESGGCLVQAGGSLRLSCAATGIIFDGYAMGWYRQAPGKERELVAAISWSGGSTYYADSVKGRFTISRDNAKNTVYLQMNSLKPEDTAVYYCAAALPGWYHDDYDYWGQGTQVTVSS"
  polyreactivity (PSR sort gate): "low polyreactivity"
- sequence code: "QVQLVESGGGLVQAGGSLRFSCAASGSIFITYAMGWYRQAPGKERELVAAISRSGGSTYYADSVKGRFTISRDNAKNTVYLQMNSLKPEDTAVYYCAAYPYSAGRYYYWGQGTQVTVSS"
  polyreactivity (PSR sort gate): "high polyreactivity"
